Recorded Ki, one value per entry.
Molecular target: gamma-glutamylcysteine synthetase (Rattus norvegicus, UniProt P19468)
Sequence (P19468 1-637): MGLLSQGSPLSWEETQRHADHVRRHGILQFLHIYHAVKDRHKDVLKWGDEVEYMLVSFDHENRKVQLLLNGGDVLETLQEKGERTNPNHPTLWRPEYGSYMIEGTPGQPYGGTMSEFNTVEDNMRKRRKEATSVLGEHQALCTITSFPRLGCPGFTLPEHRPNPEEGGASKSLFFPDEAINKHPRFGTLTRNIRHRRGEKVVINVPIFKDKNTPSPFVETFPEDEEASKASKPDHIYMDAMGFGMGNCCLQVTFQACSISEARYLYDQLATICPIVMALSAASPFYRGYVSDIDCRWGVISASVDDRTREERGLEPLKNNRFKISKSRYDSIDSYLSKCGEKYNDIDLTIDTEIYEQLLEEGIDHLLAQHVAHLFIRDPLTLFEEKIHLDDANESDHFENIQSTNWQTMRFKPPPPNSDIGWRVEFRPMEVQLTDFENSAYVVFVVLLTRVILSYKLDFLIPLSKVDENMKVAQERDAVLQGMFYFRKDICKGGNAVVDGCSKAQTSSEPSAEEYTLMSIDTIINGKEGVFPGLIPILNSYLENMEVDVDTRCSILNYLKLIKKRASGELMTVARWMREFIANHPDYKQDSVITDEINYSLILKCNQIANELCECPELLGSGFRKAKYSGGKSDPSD
Sequence (P48508 1-274 partner): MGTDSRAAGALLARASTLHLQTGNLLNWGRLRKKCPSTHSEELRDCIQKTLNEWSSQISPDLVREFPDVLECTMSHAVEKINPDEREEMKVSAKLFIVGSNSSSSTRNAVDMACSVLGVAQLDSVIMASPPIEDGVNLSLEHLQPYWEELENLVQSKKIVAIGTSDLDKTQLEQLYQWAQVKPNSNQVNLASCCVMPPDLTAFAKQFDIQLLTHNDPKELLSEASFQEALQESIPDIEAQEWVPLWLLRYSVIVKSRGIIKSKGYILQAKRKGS
Provide the measurement as a number trailed by its unit.

molecule: CCCCS(=N)(=O)CC[C@@H](N)C(=O)O (stereo partly drawn) [D-buthionine-SR-sulfoximine, reference compound]
assay_system: gamma-glutamylcysteine synthetase (Rattus norvegicus, UniProt P19468)
Ki: 5200 µM

Now for a further molecule.
Recorded result, CCCC[S@@](=N)(=O)CC[C@H](N)C(=O)O [L-buthionine-R-sulfoximine] , Ki: 110 µM

Reference source for all entries: patent US5245077A
